inhibition at 10 µM values by entry
Biological target: Human ASBT (Homo sapiens)
Construct: expressed in transfected cells; host or cells: HEK293T
Sequence (Q12908 whole entry): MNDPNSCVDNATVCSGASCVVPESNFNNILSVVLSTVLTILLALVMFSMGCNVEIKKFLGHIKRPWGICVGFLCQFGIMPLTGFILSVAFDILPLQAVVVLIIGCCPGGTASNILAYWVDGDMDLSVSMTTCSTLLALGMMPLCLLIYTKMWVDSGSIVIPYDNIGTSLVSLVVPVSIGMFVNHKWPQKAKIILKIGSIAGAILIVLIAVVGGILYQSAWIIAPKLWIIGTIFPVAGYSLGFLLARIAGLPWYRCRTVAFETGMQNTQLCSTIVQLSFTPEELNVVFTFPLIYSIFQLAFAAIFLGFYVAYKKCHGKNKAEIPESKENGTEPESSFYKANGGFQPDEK
Experiment: ASBT inhibition assay: [3H]-taurocholic acid uptake in HEK293T cells transiently transfected with human ASBT
Assay type: cell-based
Conditions: HEK-293T
Please give a number only; it is taken to be in %.

O=C(Nc1cccc(Cl)c1)c1ccccc1NS(=O)(=O)c1cccc([N+](=O)[O-])c1 [Compound 5a9]	46.9
O=C(Nc1ccc(F)c(Cl)c1)c1ccccc1NS(=O)(=O)c1cccc([N+](=O)[O-])c1 [Compound 5a2]	95.4
O=C(Nc1cccc(OC(F)F)c1)c1ccccc1NS(=O)(=O)c1cccc([N+](=O)[O-])c1 [Compound 5a3]	89

Summary line: O=C(Nc1ccc(F)c(Cl)c1)c1cccc(NS(=O)(=O)c2cccc([N+](=O)[O-])c2)c1 [Compound 5b1] , Human ASBT (Homo sapiens), reported inhibition at 10 µM = 66.3
